From: paper PMC8151276

Target: FZD5 (Homo sapiens, UniProt Q13467)
Construct: purchased Promega (in-house HiBiT-GPCR construct library, NanoBRET)
Sequence (Q13467 27-585): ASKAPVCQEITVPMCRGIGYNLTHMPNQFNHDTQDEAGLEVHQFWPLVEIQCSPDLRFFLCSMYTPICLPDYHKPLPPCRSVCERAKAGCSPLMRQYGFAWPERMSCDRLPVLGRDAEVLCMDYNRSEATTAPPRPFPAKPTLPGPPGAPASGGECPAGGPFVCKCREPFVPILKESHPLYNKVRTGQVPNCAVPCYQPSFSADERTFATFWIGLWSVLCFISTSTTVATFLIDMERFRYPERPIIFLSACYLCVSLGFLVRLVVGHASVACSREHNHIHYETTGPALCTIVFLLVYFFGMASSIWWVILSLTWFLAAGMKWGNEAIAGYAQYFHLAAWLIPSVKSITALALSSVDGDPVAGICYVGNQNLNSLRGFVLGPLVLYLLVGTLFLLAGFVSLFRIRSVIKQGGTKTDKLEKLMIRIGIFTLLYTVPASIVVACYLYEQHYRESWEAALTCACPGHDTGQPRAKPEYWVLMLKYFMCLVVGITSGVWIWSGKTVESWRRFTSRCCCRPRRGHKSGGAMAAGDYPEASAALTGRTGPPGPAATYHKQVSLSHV
Assay: NanoBRET screen HiBiT-FZD5 in HEK293
Format: binding
Conditions: FZD5; tracer 0.1μM
A collection of compounds and their measured NanoBRET Fold Response
measured.metric: NanoBRET Fold Response

compound	measured.result
O=C(CCc1ccc2n1[B-](F)(F)[N+]1=C(c3ccc[nH]3)C=CC1=C2)NCCOCCOCCNC(=O)OCCOCCN1CCN(C2=Nc3ccccc3Sc3ccccc32)CC1	1.03
O=C(CCc1ccc2n1[B-](F)(F)[N+]1=C(c3ccc[nH]3)C=CC1=C2)NCc1ccc(C(=O)NCCOCCC(=O)N[C@@H]2CC[C@@]3(O)[C@H]4Cc5ccc(O)c6c5[C@@]3(CCN4CC3CC3)[C@H]2O6)cc1 [Naltrexone-3-NB590]	0.99
Cc1cc2c(s1)Nc1ccccc1N=C2N1CCN(CCCNC(=O)CCOCCOCCOCCOCCNC(=O)CCc2ccc3n2[B-](F)(F)[N+]2=C(c4ccc[nH]4)C=CC2=C3)CC1	1.00
O=C(CCOCCOCCOCCOCCNC(=O)CCc1ccc2n1[B-](F)(F)[N+]1=C(c3ccc[nH]3)C=CC1=C2)NCCCN1CCN(C2=Nc3ccccc3Oc3ccc(Cl)cc32)CC1	1.01
CCCn1c(=O)c2[nH]c(-c3ccc(OCC(=O)NCCNC(=O)CCOCCNC(=O)c4ccc(CNC(=O)CCc5ccc6n5[B-](F)(F)[N+]5=C(c7ccc[nH]7)C=CC5=C6)cc4)cc3)nc2n(CCC)c1=O	1.13
